# System: SK-MEL-5
# MEASUREMENT DESCRIPTION: NCI tumour cell line growth inhibition, 48 h
Activity calls are given as the source filed them. Cut-off read from the data, not from the text of the source: active = GI50 up to about 1.1 µM and inactive = higher.
ASSAY ENDPOINT: GI50

>>> result("C[C@@H](NC1CCCC[C@H]1O)c1ccccc1 (some centres undefined)")
"> 100 µM (inactive)"
>>> result("c1cc2cc3c4c5c(cc6ccc7cc8cc9c%10c8c8c7c6c5c8c5c%10c(c1C9N1CCOCCOCCOCCOCCOCC1)c2c45)C3 (centres undefined)")
"78.9 µM (inactive)"
>>> result("c1ccc2c(c1)c1c(n2CCOCCN2CCOCC2)CCCC1")
"18.2 µM (inactive)"
>>> result("CCN(CC)CCn1c2cc3c(cc2c(=O)c2cccnc21)OCO3")
"2.77 µM (inactive)"
>>> result("COc1ccc2c(c1)CC[C@@H]1C2CC[C@]2(C)C(=N\\O)/C(=N/O)CC12 (some centres undefined)")
"12.7 µM (inactive)"

Look up GI50: C=C(C)CN(CC#N)CC(=C)C > 100 µM (inactive)
